Reference for the values: the supplement of paper PMC10307832

tested on: NCI-H1792; experiment: relative viability (nuclei count vs DMSO), 5 days (fraction); higher = more cells survive; details: first compound 8 µM
Collected relative viability values appear next to each entry.
Reply with the value as a number alone.

- compound: "C=C1C(=O)O[C@@H](CCCCCCCC)[C@@H]1C(=O)O [C-75] + C[C@]1(O)C[C@@H](c2nc(-c3ccc4ccc(-c5ccccc5)nc4c3)c3c(N)nccn32)C1 [Linsitinib] (partner 1 µM)"
  quantitative.readout: 0.544
- compound: "C=C1C(=O)O[C@@H](CCCCCCCC)[C@@H]1C(=O)O [C-75] + COc1cccc2cc(-c3nc([C@H]4CC[C@H](C(=O)O)CC4)n4ncnc(N)c34)[nH]c12 [OSI-027] (partner 0.5 µM)"
  quantitative.readout: 0.712
- compound: "C=C1C(=O)O[C@@H](CCCCCCCC)[C@@H]1C(=O)O [C-75] + NC(=O)Nc1cc(-c2cccc(F)c2)sc1C(=O)N[C@H]1CCCNC1 [AZD7762] (partner 0.2 µM)"
  quantitative.readout: 0.554

Then this compound:
Problem: Entry under review: C=C1C(=O)O[C@@H](CCCCCCCC)[C@@H]1C(=O)O [C-75] + Nc1ncn([C@H]2C[C@H](O)[C@@H](CO)O2)c(=O)n1 [Decitabine] (partner 2 µM) . Reported relative viability?
Solution: 0.475
